system: BACE1 (Homo sapiens, UniProt P56817)
Construct: Human HEK293 cells which are stably transfected with a vector expressing a cDNA of the human APP wt gene (APP695); endogenous in cells; host or cells: HEK293 cells stably transfected with human APP695 (wt)
Sequence (P56817 46-501): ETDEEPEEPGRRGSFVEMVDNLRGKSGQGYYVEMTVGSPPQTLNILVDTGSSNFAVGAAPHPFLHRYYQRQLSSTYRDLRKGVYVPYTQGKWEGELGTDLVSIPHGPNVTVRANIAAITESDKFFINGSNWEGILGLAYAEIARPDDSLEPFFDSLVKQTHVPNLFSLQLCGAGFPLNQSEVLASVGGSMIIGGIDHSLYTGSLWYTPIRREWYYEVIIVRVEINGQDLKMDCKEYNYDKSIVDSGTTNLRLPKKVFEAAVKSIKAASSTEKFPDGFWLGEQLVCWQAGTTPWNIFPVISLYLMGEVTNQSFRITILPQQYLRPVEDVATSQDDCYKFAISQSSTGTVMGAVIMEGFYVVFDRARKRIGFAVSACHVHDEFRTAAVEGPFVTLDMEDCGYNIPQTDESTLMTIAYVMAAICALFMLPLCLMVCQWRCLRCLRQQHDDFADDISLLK
procedureSummary: Cellular Aβ-lowering assay a) (Aβ40 ELISA)
Type: cell-based
testConditions: cellular assay a): HEK293 cells expressing human APP695, Aβ40 in supernatant by ELISA after 18-20 hrs; read-out: BACE1 cell act. Aβ40 IC50
pIC50: −log10 of the molar value.
# if value of pIC50 reaches 6, tag yes; if it stays below, tag no

[[record]]
compound = "N#Cc1cncc(-c2ccc3c(c2)[C@@]2(CC(c4ccccc4)O3)N=C(N)OCC2(F)F)c1 (mixture of isomers)"
label = "yes"


Query: pIC50 >= 6 for `NC1=N[C@@]2(CCOc3ccc(NC(=O)c4ccc(Cl)cn4)cc32)C(F)(F)COC1` ?
Reply: no

Query: Is it the case that `NC1=N[C@@]2(CCOc3ccc(NC(=O)c4ccc(Cl)cn4)cc32)C(F)(F)CO1` has pIC50 reaching or exceeding 6?
Reply: yes

Query: Exam item: decide whether the reported pIC50 for `NC1=N[C@@]2(CCS(=O)(=O)c3ccc(NC(=O)c4ccc(Cl)cn4)cc32)C(F)(F)CO1` is at least 6.
Reply: no

Query: Quick check: does NC1=N[C@@]2(CC(c3ccccc3)Oc3ccc(-c4cncc(Cl)c4)cc32)C(F)(F)COC1 (mixture of isomers) have pIC50 greater than or equal to 6?
Reply: no

Query: Identify whether the reported pIC50 of the following compound is 6 or greater: `NC1=N[C@@]2(CCOc3ccc(-c4cncc(Cl)c4)cc32)C(F)(F)CO1`
Reply: yes

----------
system: BACE1 (Homo sapiens)
Construct: Human HEK293 cells which are stably transfected with a vector expressing a cDNA of the human APP wt gene (APP695); endogenous in cells; host or cells: HEK293 cells stably transfected with human APP695 (wt)
procedureSummary: Cellular Aβ-lowering assay a) (Aβ40 ELISA)
Type: cell-based
testConditions: cellular assay a): HEK293 cells expressing human APP695, Aβ40 in supernatant by ELISA after 18-20 hrs; read-out: BACE1 cell act. Aβ40 IC50
Experimental: a) Human HEK293 cells which are stably transfected with a vector expressing a cDNA of the human APP wt gene (APP695) were used to assess the potency of the compounds in a cellular assay. […] After stopping the reaction with one volume of 1N H2SO4 the reaction was measured in an ELISA reader at 450 nm wavelength. The concentrations of Aβ in the culture supernatants were calculated from a standard curve obtained with known amounts of pure Aβ peptide.
assayEndpoint: pIC50
Scale for pIC50: -log10 of concentration given in mol/L; no unit attached.

The cases that follow already have their pIC50 on record.
[[record]]
compound = "NC1=N[C@@]2(CC(c3ccccc3)Oc3ccc(-c4cncnc4)cc32)C(F)(F)CO1 (mixture of isomers)"
quantitativereadout = 5.80

[[record]]
compound = "NC1=N[C@@]2(CC(c3ccccc3)Oc3ccc(NC(=O)c4ccc(C(F)(F)F)cn4)cc32)C(F)(F)CO1 (single isomer, unassigned)"
quantitativereadout = 6.55

[[record]]
compound = "N#Cc1ccc(C(=O)Nc2ccc3c(c2)[C@@]2(CCO3)N=C(N)COCC2(F)F)nc1"
quantitativereadout = 6.08

[[record]]
compound = "NC1=N[C@@]2(CCSc3ccc(NC(=O)c4ccc(Cl)cn4)cc32)C(F)(F)CO1"
quantitativereadout = 7.46

[[record]]
compound = "NC1=N[C@@]2(CCc3ccc(NC(=O)c4ccc(C(F)(F)F)cn4)cc32)C(F)(F)CO1"
quantitativereadout = 6.18

[[record]]
compound = "NC1=N[C@@]2(CC(c3ccccc3)Oc3ccc(NC(=O)c4ccc(F)cn4)cc32)C(F)(F)CO1 (single isomer, unassigned)"
quantitativereadout = 6.29


Note: attention shifts to another entry.
Query: Need pIC50 of NC1=N[C@@]2(CC(c3ccccc3)Oc3ccc(-c4cc(Cl)cc(Cl)c4)cc32)C(F)(F)COC1 (mixture of isomers) , thanks.
Reply: 5.20

----------
system: BACE2 (Rattus norvegicus)
Construct: endogenous cellular BACE2 in the Ins1e rat cell line; endogenous in cells
Sequence (Q6IE75 63-514): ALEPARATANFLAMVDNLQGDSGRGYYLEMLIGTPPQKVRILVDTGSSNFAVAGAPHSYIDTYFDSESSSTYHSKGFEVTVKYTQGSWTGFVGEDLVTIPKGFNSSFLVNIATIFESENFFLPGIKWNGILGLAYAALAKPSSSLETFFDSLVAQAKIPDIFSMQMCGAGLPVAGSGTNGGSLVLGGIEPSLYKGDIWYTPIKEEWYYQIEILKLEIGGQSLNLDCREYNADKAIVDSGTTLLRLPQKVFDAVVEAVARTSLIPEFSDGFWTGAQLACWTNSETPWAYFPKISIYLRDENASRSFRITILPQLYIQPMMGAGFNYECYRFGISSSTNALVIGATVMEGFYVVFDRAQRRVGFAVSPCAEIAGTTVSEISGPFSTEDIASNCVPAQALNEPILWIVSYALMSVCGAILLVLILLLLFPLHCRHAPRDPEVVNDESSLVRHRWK
procedureSummary: Assay for BACE inhibition by measuring cellular TMEM27 cleavage
testConditions: INS-TMEM27 cells (INS1e-derived), shed human TMEM27 by ELISA; read-out: BACE2 cell act. IC50
From the text: The assay uses the principle of inhibition of human TMEM27 cleavage by endogenous cellular BACE2 in the Ins1e rat cell line and shedding from the cell surface into the culture medium, followed by detection in an ELISA assay. Inhibition of BACE2 prevents the cleavage and shedding in a dose-dependent manner. The stable cell line “INS-TMEM27” represents an INS1e-derived cell line with inducible expression (using the TetOn system) of full-length hTMEM27 in a doxycycline-dependent manner. […]
assayEndpoint: pIC50
// pIC50: -log10(molar conc.)

Answered examples (3):
[[record]]
structure = "NC1=N[C@@]2(CCc3ccc(-c4cc(Cl)cc(Cl)c4)cc32)C(F)(F)CO1"
system = "BACE2 (Rattus norvegicus)"
assayendpoint = "pIC50"
quantitativereadout = 5.56

[[record]]
structure = "NC1=N[C@@]2(CCOc3ccc(NC(=O)c4ccc(Cl)cn4)cc32)C(F)(F)CO1"
system = "BACE2 (Rattus norvegicus)"
assayendpoint = "pIC50"
quantitativereadout = 6.01

[[record]]
structure = "NC1=N[C@@]2(CCSc3ccc(-c4cncc(Cl)c4)cc32)C(F)(F)CO1"
system = "BACE2 (Rattus norvegicus)"
assayendpoint = "pIC50"
quantitativereadout = 5.71


Then there is this compound:
Query: Find the recorded pIC50 belonging to `CC1(C)CC[C@@]2(N=C(N)OCC2(F)F)c2cc(NC(=O)c3ccc(C#N)cn3)ccc21` and report it.
Reply: 4.88

----------
system: BACE1 (Homo sapiens, UniProt P56817)
Construct: Human HEK293 cells which are stably transfected with a vector expressing a cDNA of the human APP wt gene (APP695); endogenous in cells; host or cells: HEK293 cells stably transfected with human APP695 (wt)
procedureSummary: Cellular Aβ-lowering assay a) (Aβ40 ELISA)
Format: cell-based
testConditions: cellular assay a): HEK293 cells expressing human APP695, Aβ40 in supernatant by ELISA after 18-20 hrs; read-out: BACE1 cell act. Aβ40 IC50
# IC50 listing for each entry below

Query: Could you tell me which IC50 is on file for `N#Cc1ccc(C(=O)Nc2ccc3c(c2)[C@@]2(CCC3)N=C(N)OCC2(F)F)nc1` ?
Reply: 5 nM

Query: IC50 for `CC1(C)CC[C@@]2(N=C(N)OCC2(F)F)c2cc(NC(=O)c3ccc(C#N)cn3)ccc21` ?
Reply: 1110 nM

Query: Requested field: IC50. Item: `N#Cc1ccc(C(=O)Nc2ccc3c(c2)[C@@]2(CCO3)N=C(N)OCC2(F)F)nc1`
Reply: 80 nM

Query: What IC50 value was documented for this compound, `NC1=N[C@@]2(CCCc3ccc(-c4cncc(Cl)c4)cc32)C(F)(F)CO1` ?
Reply: 100 nM

----------
Below, each entry is listed with its recorded pIC50.
system: BACE1 (Homo sapiens, UniProt P56817)
Construct: Human HEK293 cells which are stably transfected with a vector expressing a cDNA of the human APP wt gene (APP695); endogenous in cells; host or cells: HEK293 cells stably transfected with human APP695 (wt)
procedureSummary: Cellular Aβ-lowering assay b) (Abeta 40 AlphaLISA Assay)
Assay type: cell-based
testConditions: cellular assay b): HEK293 APP cells, Aβ40 in supernatant by AlphaLISA after 18-20 hrs; read-out: BACE1 cell act. Aβ40 IC50
Counter-ions that a name gives are not always drawn.
Notebook: values listed as pIC50 are -log10 of the concentration (mol/L).

Recorded pIC50, per entry:
[[record]]
compound = "NC1=N[C@@]2(C[C@]3(CCCOC3)Oc3ccc(-c4cncc(Cl)c4)cc32)C(F)(F)CO1 [Example 31, formate]"
assayendpoint = "pIC50"
quantitativereadout = 5.05

[[record]]
compound = "N#Cc1ccc(C(=O)Nc2ccc3c(c2)[C@@]2(C[C@@]4(CCCOC4)O3)N=C(N)OCC2(F)F)nc1"
assayendpoint = "pIC50"
quantitativereadout = 5.29

[[record]]
compound = "N#Cc1cncc(-c2ccc3c(c2)[C@@]2(CC3)N=C(N)OCC2(F)F)c1"
assayendpoint = "pIC50"
quantitativereadout = 5.47

[[record]]
compound = "N#Cc1cccc(-c2ccc3c(c2)[C@@]2(C[C@@]4(CCCOC4)O3)N=C(N)OCC2(F)F)c1 [Example 30, formate]"
assayendpoint = "pIC50"
quantitativereadout = 5.18


Next compound, please.
Query: For NC1=N[C@@]2(C[C@@]3(CCCOC3)Oc3ccc(-c4cncc(Cl)c4)cc32)C(F)(F)CO1 [Example 29, formate] , what is its reported pIC50?
Reply: 5.35
